Origin of the recorded values: patent US20250312339A1

TEST SYSTEM: recombinant human SHP2 (Homo sapiens)
Sequence (Q06124 whole entry): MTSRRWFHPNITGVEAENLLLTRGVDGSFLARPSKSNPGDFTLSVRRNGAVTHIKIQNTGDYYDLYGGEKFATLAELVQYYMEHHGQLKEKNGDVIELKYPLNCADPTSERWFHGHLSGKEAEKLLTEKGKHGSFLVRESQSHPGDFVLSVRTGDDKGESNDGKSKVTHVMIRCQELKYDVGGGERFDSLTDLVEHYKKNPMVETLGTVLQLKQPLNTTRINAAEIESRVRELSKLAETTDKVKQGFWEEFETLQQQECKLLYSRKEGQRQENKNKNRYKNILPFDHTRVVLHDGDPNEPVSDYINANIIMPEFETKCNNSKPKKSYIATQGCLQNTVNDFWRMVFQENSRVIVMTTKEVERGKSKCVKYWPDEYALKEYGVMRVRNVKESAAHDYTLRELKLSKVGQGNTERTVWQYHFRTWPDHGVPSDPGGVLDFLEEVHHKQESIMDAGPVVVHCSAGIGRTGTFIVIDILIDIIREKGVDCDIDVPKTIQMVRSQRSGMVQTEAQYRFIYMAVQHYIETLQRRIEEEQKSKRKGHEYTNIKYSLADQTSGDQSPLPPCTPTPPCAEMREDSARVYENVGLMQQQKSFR
ASSAY TEXT: Inhibition of recombinant human SHP2
EXPERIMENTAL CONDITIONS: allosteric inhibitor
MEASURED ENDPOINT: pIC50
Please note pIC50 is a logarithmic value: minus log10 of concentration in mol/L. Answer with that number alone.

**Q:** Tell me its pIC50 given `N[C@@H]1c2ccccc2OC12CCN(c1cnc3c(N4CCCc5ncccc54)n[nH]c3n1)CC2` as the entry.
**A:** 9.15
